// inhibition at 10 µM lookup, one value per entry
# studySystem: TbrPDEB1 (Trypanosoma brucei, UniProt Q8WQX9)
# Construct: The TbrPDEB1 catalytic domain phosphodiesterase activity assays were conducted based on a method reported by Sijm et al
# Sequence (Q8WQX9 565-918 limits assumed): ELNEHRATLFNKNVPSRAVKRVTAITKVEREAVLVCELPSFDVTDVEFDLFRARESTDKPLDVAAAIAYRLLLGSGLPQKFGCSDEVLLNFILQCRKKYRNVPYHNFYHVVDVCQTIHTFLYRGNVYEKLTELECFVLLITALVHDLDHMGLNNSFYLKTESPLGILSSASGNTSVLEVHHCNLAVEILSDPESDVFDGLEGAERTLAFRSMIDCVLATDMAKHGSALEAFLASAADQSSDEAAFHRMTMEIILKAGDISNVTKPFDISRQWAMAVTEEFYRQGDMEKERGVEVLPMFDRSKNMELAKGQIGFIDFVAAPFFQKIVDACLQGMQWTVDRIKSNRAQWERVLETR
# assayRemarks: TbrPDEB1 catalytic domain phosphodiesterase activity assay (PDELight HTS cAMP kit)
# Type: biochemical
# experimentalSetup: single point assay at 10 μM inhibitor; read-out: TbrPDEB1 (% inh.)
assayReadout: inhibition at 10 µM (%)

> print(dat)
                                   compound         assayreadout  comparisonoperator  valueobserved
1  COc1ccc(C2=NN(C(C)C)C(=O)[C@@H]3CC=CC[C@H]23)cc1Oc1ccc(C(=O)O)cn1 (relative stereo)  inhibition at 10 µM                   =             11
2  COc1ccc(C2=NN(C(C)C)C(=O)[C@@H]3CC=CC[C@H]23)cc1Oc1ccc(C(=O)NCC(N)=O)cn1 (relative stereo)  inhibition at 10 µM                   =              5
3  COc1ccc(C2=NN(C(C)C)C(=O)[C@@H]3CC=CC[C@H]23)cc1Oc1cccc(C(=O)NCC(N)=O)n1 (relative stereo)  inhibition at 10 µM                   =             40
4  COc1ccc(C2=NN(C(C)C)C(=O)[C@H]3CC=CC[C@@H]23)cc1Oc1cc(N2CCOCC2)ncn1 (relative stereo)  inhibition at 10 µM                   =             11
5  COc1ccc(C2=NN(C(C)C)C(=O)[C@@H]3CC=CC[C@H]23)cc1Oc1cc(C(=O)NCC(N)=O)ccn1 (relative stereo)  inhibition at 10 µM                   =             27
6  COc1ccc(C2=NN(C(C)C)C(=O)[C@@H]3CC=CC[C@H]23)cc1Oc1cccc(C#N)n1 (relative stereo)  inhibition at 10 µM                   =             36
7  COc1ccc(C2=NN(C(C)C)C(=O)[C@H]3CC=CC[C@@H]23)cc1Oc1ncc(CN2CCOCC2)s1 (relative stereo)  inhibition at 10 µM                   =             40
8  COC(=O)c1ccc(Oc2cc(C3=NN(C(C)C)C(=O)[C@@H]4CC=CC[C@H]34)ccc2OC)nc1 (relative stereo)  inhibition at 10 µM                   ≥             50

---

Measured IC50 of individual entries
# Test system: T.b. brucei Squib-427 strain
# assayRemarks: Antitrypanosomal phenotypic cellular assay (resazurin)
# Assay type: cell-based
# experimentalSetup: Trypanosoma brucei; in vitro, 72 h, mean ± S.E.M.

compound	comparisonOperator	IC50 / µM
COc1ccc(C2=NN(C(C)C)C(=O)[C@H]3CC=CC[C@@H]23)cc1Oc1ccc(Cn2ccnc2)cn1 (relative stereo)	=	7.9
COc1ccc(C2=NN(C(C)C)C(=O)[C@@H]3CC=CC[C@H]23)cc1Oc1cccc(C(=O)NCc2ccco2)n1 (relative stereo)	=	25
Cc1ccc(C(=O)Nc2ccc(S(=O)(=O)O)c3cc(S(=O)(=O)O)cc(S(=O)(=O)O)c23)cc1NC(=O)c1cccc(NC(=O)Nc2cccc(C(=O)Nc3cc(C(=O)Nc4ccc(S(=O)(=O)O)c5cc(S(=O)(=O)O)cc(S(=O)(=O)O)c45)ccc3C)c2)c1 [suramin, reference compound]	=	0.04
COC(=O)c1cnc(Oc2cc(C3=NN(C(C)C)C(=O)[C@@H]4CC=CC[C@H]34)ccc2OC)cn1 (relative stereo)	=	16
CCCCNC(=O)c1cccc(Oc2cc(C3=NN(C(C)C)C(=O)[C@@H]4CC=CC[C@H]34)ccc2OC)n1 (relative stereo)	>	64
COc1ccc(C2=NN(C(C)C)C(=O)[C@@H]3CC=CC[C@H]23)cc1Oc1cccc(C(N)=O)n1 (relative stereo)	=	16
COC(=O)c1ccc(Oc2cc(C3=NN(C(C)C)C(=O)[C@@H]4CC=CC[C@H]34)ccc2OC)nc1 (relative stereo)	=	7.9
